measurement_description: NCI Yeast Anticancer Drug Screen. Data for the mec2-1 strain (AID 157)
measurement_parameters: S. cerevisiae mec2-1 strain, at 11.0 µM, stronger effect = higher value
The panel holds about 79,000 compounds, 15% with a hit somewhere; the sample as a whole holds those more often.
reported_metric: growth inhibition (%)
Respond with the bare value in %.

Assign growth inhibition to the following record: CC1=NOC(=O)/C1=C/c1ccc2c(c1)OCO2
10

Assign growth inhibition to the following record: C[C@@](O)(/C=C/[C@H]1CC=CC(=O)O1)[C@@H](C[C@@H](O)\C=C/C=C\C=C\CO)OP(=O)(O)O
25

Assign growth inhibition to the following record: CCCCN(CCCC)C(=O)/C=C/c1ccccc1
-6

Assign growth inhibition to the following record: CN(C)/C=C/c1nnc([N+](=O)[O-])s1
-6

Assign growth inhibition to the following record: C/C=C/SC(=Nc1ccccc1)Nc1ccccc1
-9

Assign growth inhibition to the following record: CCc1c(Cl)c(C)cc(O)c1Cl
5

Assign growth inhibition to the following record: O=C1/C(=C/c2ccccc2)CCCC1CN1CCCCC1 (stereo unspecified)
34

Assign growth inhibition to the following record: Cc1ccc(CC2(OCCN(C)C)CCC(C(C)(C)C)CC2)cc1 (stereo unspecified)
-7

Assign growth inhibition to the following record: CC1CC[C@]2(C(=O)O)CCC3(C)C(=CC(=O)C4[C@@]5(C)CCC(=O)C(C)(C)C5CC[C@]43C)[C@@H]2[C@H]1C (stereo partly specified)
88

Assign growth inhibition to the following record: CCCCCCCCCCCC1N=C(N)NC(CCCO)=C1C(=O)OC (stereo unspecified)
99

Assign growth inhibition to the following record: NC(=O)C(=O)NNc1ccccc1
48
